Where these numbers come from: patent US20260216170A1

- Experimental target: Human BCL-XL protein (N-terminal HiBiT tagged BCL-XL expressed in HT1080 cells) (Homo sapiens, UniProt Q07817)
- Construct: expressed in transfected cells; host or cells: HT-1080 (ATCC CCL-121), stably transduced with lentivirus pLV-UBC-N-HiBiT-BCL-XL-PGK-puro and selected with puromycin
- Sequence (Q07817 whole entry): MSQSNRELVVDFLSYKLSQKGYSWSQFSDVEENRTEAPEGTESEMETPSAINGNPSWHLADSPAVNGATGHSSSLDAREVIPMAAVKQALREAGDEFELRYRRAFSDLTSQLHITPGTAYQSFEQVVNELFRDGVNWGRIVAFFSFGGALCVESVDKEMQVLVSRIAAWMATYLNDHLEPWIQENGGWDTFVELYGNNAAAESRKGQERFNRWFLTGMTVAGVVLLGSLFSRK
- Experimental details: HiBiT Based Degradation Assay
- Format: cell-based
- Condition label: BCL-XL degradation, HT1080 cells expressing N-HiBiT-BCL-XL, 24 hours incubation, normalized with DMSO control; geometric mean for multiple data points; read-out: EC50 (24 h)
Value kind: DC50

DC50 reported for this compound Cc1cc(OC[C@H]2C[C@@H]2C2CCN(CC(=O)Nc3ccc4c(C5CCC(=O)NC5=O)nn(C)c4c3)CC2)ccc1-c1ccc(N2CCc3cccc(C(=O)Nc4nc5ccccc5s4)c3C2)nc1C(=O)O (relative stereo) [Compound 1003a] : < 10 nM

DC50 reported for this compound Cc1c(OCCC2CC3(CCN(CC(=O)Nc4ccc5c(C6CCC(=O)NC6=O)nn(C)c5c4)CC3)C2)cccc1-c1ccc(N2CCc3cccc(C(=O)Nc4nc5ccccc5s4)c3C2)nc1C(=O)O (stereo not drawn) : 10 to 100 nM

DC50 reported for this compound Cc1cc(OC[C@@H]2C[C@@H]2CC2CCN(CC(=O)Nc3ccc4c(C5CCC(=O)NC5=O)nn(C)c4c3)CC2)ccc1-c1ccc(N2CCc3cccc(C(=O)Nc4nc5ccccc5s4)c3C2)nc1C(=O)O (single isomer, unassigned) [Compound 1002d] : < 10 nM

DC50 reported for this compound Cc1cc(OCC2CC3(CCN(CC(=O)Nc4cc5c(cc4F)c(C4CCC(=O)NC4=O)nn5C)CC3)C2)ccc1-c1ccc(N2CCc3cccc(C(=O)Nc4nc5ccccc5s4)c3C2)nc1C(=O)O (stereo not drawn) : 10 to 100 nM

DC50 reported for this compound COc1cc2c(C3CCC(=O)NC3=O)nn(C)c2cc1NC(=O)CN1CCC(CCCOc2ccc(-c3ccc(N4CCc5cccc(C(=O)Nc6nc7ccccc7s6)c5C4)nc3C(=O)O)c(C)c2)CC1 (stereo not drawn) : 100 to 1000 nM

DC50 reported for this compound Cc1c(OCCC[C@H]2[C@@H]3C[C@H]2CN(CC(=O)Nc2ccc4c(C5CCC(=O)NC5=O)nn(C)c4c2)C3)cccc1-c1ccc(N2CCc3cccc(C(=O)Nc4nc5ccccc5s4)c3C2)nc1C(=O)O (stereo partly drawn) [Compound 176a] : 10 to 100 nM

DC50 reported for this compound Cc1cc(OCCCC2(O)CCN(CC(=O)Nc3ccc4c(C5CCC(=O)NC5=O)nn(C)c4c3)CC2)ccc1-c1ccc(N2CCc3cccc(C(=O)Nc4nc5ccccc5s4)c3C2)nc1C(=O)O (stereo not drawn) : < 10 nM

DC50 reported for this compound Cn1nc(C2CCC(=O)NC2=O)c2ccc(NC(=O)CN3CCC(CCCOc4cccc(-c5ccc(N6CCc7ccnc(C(=O)Nc8nc9ccccc9s8)c7C6)nc5C(=O)O)c4C(F)(F)F)CC3)cc21 (stereo not drawn) : 10 to 100 nM

DC50 reported for this compound Cc1cc(OC[C@H](C)CC2CCN(CC(=O)Nc3ccc4c(C5CCC(=O)NC5=O)nn(C)c4c3)CC2)ccc1-c1ccc(N2CCc3ccnc(C(=O)Nc4nc5ccccc5s4)c3C2)nc1C(=O)O (single isomer, unassigned) [Compound 140a] : < 10 nM

DC50 reported for this compound Cc1cc(OCCC2CC3(CCN(CC(=O)Nc4ccc5c(C6CCC(=O)NC6=O)nn(C)c5c4)CC3)C2)ccc1-c1ccc(N2CCc3cccc(C(=O)Nc4nc5ccccc5s4)c3C2)nc1C(=O)O (stereo not drawn) : 10 to 100 nM

DC50 reported for this compound Cc1cc(OCC2CC3(CCN(CC(=O)Nc4ccc5c(C6CCC(=O)NC6=O)nn(C)c5c4)CC3)C2)ccc1-c1ccc(N2CCc3ccnc(C(=O)Nc4nc5ccccc5s4)c3C2)nc1C(=O)O (stereo not drawn) : < 10 nM

DC50 reported for this compound Cc1cc(OCCC[C@@H]2CCN(CC(=O)Nc3ccc4c(C5CCC(=O)NC5=O)nn(C)c4c3)[C@H](C)C2)ccc1-c1ccc(N2CCc3ccnc(C(=O)Nc4nc5ccccc5s4)c3C2)nc1C(=O)O (stereo partly drawn) [Compound 219d] : < 10 nM

DC50 reported for this compound Cc1c(OCCCC2CCN(CC(=O)Nc3ccc4c(C5CCC(=O)NC5=O)nn(C)c4n3)CC2)cccc1-c1ccc(N2CCc3cccc(C(=O)Nc4nc5ccccc5s4)c3C2)nc1C(=O)O (stereo not drawn) : 10 to 100 nM

DC50 reported for this compound COc1c(NC(=O)CN2CCC3(CC2)CC(COc2cccc(-c4ccc(N5CCc6cccc(C(=O)Nc7nc8ccccc8s7)c6C5)nc4C(=O)O)c2C(F)(F)F)C3)ccc2c(C3CCC(=O)NC3=O)nn(C)c12 (stereo not drawn) : 10 to 100 nM
